target desc: T1, MHC class I molecule HLA-A*0201 (iTopia plate-bound monomer) (biotin (bound to streptavidin-coated plate))
T1 construct: also called A2
assay notes: iTopia off-rate assay, 37 C; fit R^2 0.93
Label N if t½ half life falls below 1 h; label Y in every other case.

binder: PLADLSPFA (also called Peptide No 77) [5T4 9-mer peptide 77 PLADLSPFA]
answer label: Y
--
binder: RGPAAGDGR (also called Peptide No 4) [5T4 9-mer peptide 4 RGPAAGDGR]
answer label: Y
--
binder: SLRHLDLSN [5T4 9-mer peptide 118 SLRHLDLSN]
answer label: N

hey, is t½ half life for this one >= 1 h? GMVVAALLA (also called Peptide No 99) [5T4 9-mer peptide 99 GMVVAALLA]
Y
